This collection of values is drawn from patent US20160052926A1.

tested on: Recombinant human FGFR2 (Homo sapiens, UniProt P21802)
Sequence (P21802 22-821): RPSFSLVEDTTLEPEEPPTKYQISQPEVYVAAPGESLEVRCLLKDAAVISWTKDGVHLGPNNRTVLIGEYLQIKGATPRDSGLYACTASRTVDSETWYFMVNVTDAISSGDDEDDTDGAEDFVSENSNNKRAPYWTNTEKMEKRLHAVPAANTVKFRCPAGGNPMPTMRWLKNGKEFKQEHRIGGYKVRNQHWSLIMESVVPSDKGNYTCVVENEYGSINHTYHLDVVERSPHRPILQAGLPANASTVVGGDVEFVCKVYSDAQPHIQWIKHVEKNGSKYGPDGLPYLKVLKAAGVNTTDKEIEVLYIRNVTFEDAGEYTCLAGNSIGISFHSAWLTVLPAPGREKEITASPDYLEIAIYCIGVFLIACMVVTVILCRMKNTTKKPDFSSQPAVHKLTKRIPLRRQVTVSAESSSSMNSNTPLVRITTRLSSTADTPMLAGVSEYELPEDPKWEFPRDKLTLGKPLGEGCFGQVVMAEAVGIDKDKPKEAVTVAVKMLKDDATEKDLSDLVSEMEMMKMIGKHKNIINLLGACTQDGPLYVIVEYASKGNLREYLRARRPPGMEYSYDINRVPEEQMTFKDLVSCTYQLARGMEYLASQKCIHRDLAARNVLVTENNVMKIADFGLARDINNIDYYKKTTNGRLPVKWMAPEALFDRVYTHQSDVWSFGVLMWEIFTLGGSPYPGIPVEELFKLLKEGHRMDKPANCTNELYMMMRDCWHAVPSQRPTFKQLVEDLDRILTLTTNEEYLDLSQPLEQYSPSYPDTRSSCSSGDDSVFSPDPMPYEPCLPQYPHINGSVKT
assay comment: Transcreener Kinase Assay of FGFR2
Assay type: biochemical
experimental context: read-out: FGFR2 (FP) IC50
Protocol: Transcreener Kinase Assay of FGFR2 • Compounds were solved in DMSO and were diluted with assay buffer to 5 folds of final concentration keeping the DMSO concentration at 5%. […] • [ADP] in Compound well represents the ADP concentration in compound well. • [ADP] in Positive control well represents the ADP concentration in 5% DMSO well • Conversion of mP value to ADP concentration is calculated based on the formula which determined by standard curve. […] IC50: calculated using XL-Fit 2.0 software.
Below, each entry is listed alongside its reported IC50.
Just the number in nM, nothing appended.

Solved entries (count: 3):
>  <smiles input>
CCn1cc(Nc2ncc(OCc3cc(C(=O)NC)cc(OC)c3Cl)cn2)cn1

>  <measure name>
IC50

>  <value measured>
7

$$$$
>  <smiles input>
CNC(=O)c1cc(CCc2cnc(Nc3ccc(CN4CCOCC4)nc3)nc2)c(F)c(OC)c1

>  <measure name>
IC50

>  <value measured>
15

$$$$
>  <smiles input>
CNC(=O)c1cc(CCc2cnc(Nc3cnn(CCS(C)(=O)=O)c3)nc2)c(Cl)c(OC)c1

>  <measure name>
IC50

>  <value measured>
7

$$$$

# ---- query compound ----
The compound listed as CCn1cc(Nc2ncc(/C=C/c3c(F)c(C(=O)NC)cc(OC)c3Cl)cn2)cn1 shows IC50 equal to 10

----------
System: RT-112
assay comment: Cellular Proliferation Assay (Cell Counting Kit-8), RT-112
Assay type: cell-based
experimental context: Homo sapiens, RT-112 cells, 72 hours
measure name: IC50 (µM)
Just the number in µM, nothing appended.

Solved entries (count: 5):
>  <compound>
CNC(=O)c1cc(CCc2cnc(Nc3ccn4ccnc4c3)nc2)c(F)c(OC)c1 [Compound 66]

>  <value measured>
0.201

$$$$
>  <compound>
CNC(=O)c1cc(CCc2cnc(Nc3ccc4c(C)n(C)nc4c3)nc2)c(Cl)c(OC)c1 [Compound 84]

>  <value measured>
0.122

$$$$
>  <compound>
CNC(=O)c1cc(CCc2cnc(Nc3ccc4c(C)n(C)nc4c3)nc2)c(F)c(OC)c1 [Compound 130]

>  <value measured>
0.048

$$$$
>  <compound>
CNC(=O)c1cc(CCc2cnc(Nc3cnn(C[C@@H](C)O)c3)nc2)c(F)c(OC)c1 [Compound 33]

>  <value measured>
0.135

$$$$
>  <compound>
CCn1cc(Nc2ncc(/C=C/c3c(F)c(C(=O)NC)cc(OC)c3Cl)cn2)cn1 [Compound 2]

>  <value measured>
0.019

$$$$

Form field IC50 for item CCn1cc(Nc2ncc(CCc3cc(C(=O)NC)cc(OC)c3Br)cn2)cn1 [Compound 83] on RT-112: 0.201

Form field IC50 for item CNC(=O)c1cc(CCc2cnc(Nc3cnc4ccnn4c3)nc2)c(F)c(OC)c1 [Compound 94] on RT-112: 0.287

Form field IC50 for item CCN(CC)CCCn1cc(Nc2ncc(CCc3cc(C(=O)NC)cc(OC)c3F)cn2)cn1 [Compound 13] on RT-112: 0.059

----------
Below, each entry is listed alongside its reported IC50.
tested on: Recombinant human FGFR1 (Homo sapiens, UniProt P11362)
Sequence (P11362 22-822): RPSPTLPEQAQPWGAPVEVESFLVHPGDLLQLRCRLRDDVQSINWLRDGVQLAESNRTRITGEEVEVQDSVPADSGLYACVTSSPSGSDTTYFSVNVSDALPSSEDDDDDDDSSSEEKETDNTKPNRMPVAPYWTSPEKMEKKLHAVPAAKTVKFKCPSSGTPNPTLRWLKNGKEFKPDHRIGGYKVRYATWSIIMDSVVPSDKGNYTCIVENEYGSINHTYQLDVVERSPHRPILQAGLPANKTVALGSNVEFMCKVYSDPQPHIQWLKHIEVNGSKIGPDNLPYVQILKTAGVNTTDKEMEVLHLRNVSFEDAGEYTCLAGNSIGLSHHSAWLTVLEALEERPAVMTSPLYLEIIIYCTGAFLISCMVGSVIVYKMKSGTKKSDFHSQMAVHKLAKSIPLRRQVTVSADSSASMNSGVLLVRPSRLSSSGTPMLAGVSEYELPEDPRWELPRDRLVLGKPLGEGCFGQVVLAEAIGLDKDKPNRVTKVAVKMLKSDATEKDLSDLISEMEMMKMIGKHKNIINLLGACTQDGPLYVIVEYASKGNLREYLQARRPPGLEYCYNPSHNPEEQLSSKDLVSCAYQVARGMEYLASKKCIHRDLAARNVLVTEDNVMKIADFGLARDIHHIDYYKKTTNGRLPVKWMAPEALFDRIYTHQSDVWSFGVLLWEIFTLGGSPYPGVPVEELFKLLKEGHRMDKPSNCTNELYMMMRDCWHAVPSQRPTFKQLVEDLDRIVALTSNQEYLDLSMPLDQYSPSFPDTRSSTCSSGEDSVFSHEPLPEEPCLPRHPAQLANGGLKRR
assay comment: Transcreener Kinase Assay of FGFR1
Type: biochemical
experimental context: read-out: FGFR1 (FP) IC50
Protocol: Transcreener Kinase Assay of FGFR1 Prepare Solution • Compounds were solved in DMSO and were diluted with assay buffer to 5 folds of final concentration keeping the DMSO concentration at 5%. […] • [ADP] in Compound well represents the ADP concentration in compound well. • [ADP] in Positive control well represents the ADP concentration in 5% DMSO well • Conversion of mP value to ADP concentration is calculated based on the formula which determined by standard curve. […]
Just the number in nM, nothing appended.

Solved entries (count: 5):
>  <compound>
CNC(=O)c1cc(COc2cnc(Nc3cnn(C)c3)nc2)c(F)c(OC)c1

>  <value measured>
27

$$$$
>  <compound>
CNC(=O)c1cc(CCc2cnc(Nc3cnn(CCCN(C)C)c3)nc2)c(F)c(OC)c1

>  <value measured>
20

$$$$
>  <compound>
CNC(=O)c1cc(CCc2cnc(Nc3cnn(-c4cccnc4)c3)nc2)c(F)c(OC)c1

>  <value measured>
20

$$$$
>  <compound>
CNC(=O)c1cc(COc2cnc(Nc3cnn(C4C[C@@H](C)N[C@@H](C)C4)c3)nc2)c(F)c(OC)c1 (stereo partly shown)

>  <value measured>
15

$$$$
>  <compound>
CNC(=O)c1cc(CCc2cnc(Nc3cnn([C@@H]4CCCNC4)c3)nc2)c(F)c(OC)c1

>  <value measured>
8

$$$$

Form field IC50 for item CNC(=O)c1cc(CCc2cnc(Nc3cnc4ccnn4c3)nc2)c(F)c(OC)c1 on Recombinant human FGFR1 (Homo sapiens, UniProt P11362): 161

Form field IC50 for item CCN1CCN(c2ccc(Nc3ncc(CCc4cc(C(=O)NC)cc(OC)c4C)cn3)cc2)CC1 on Recombinant human FGFR1 (Homo sapiens, UniProt P11362): 43

Form field IC50 for item CNC(=O)c1cc(CCc2cnc(Nc3cnn(C4CN(C)C4)c3)nc2)c(F)c(OC)c1 on Recombinant human FGFR1 (Homo sapiens, UniProt P11362): 20

Form field IC50 for item CNC(=O)c1cc(CCc2cnc(Nc3ccc(CN4CCN(C)CC4)cc3)nc2)c(F)c(OC)c1 on Recombinant human FGFR1 (Homo sapiens, UniProt P11362): 14

Form field IC50 for item CNC(=O)c1cc(C#Cc2cnc(Nc3ccc(N4C[C@@H](C)N[C@@H](C)C4)cc3)nc2)c(Cl)c(OC)c1 on Recombinant human FGFR1 (Homo sapiens, UniProt P11362): 22

Form field IC50 for item CONC(=O)c1cc(CCc2cnc(Nc3ccc(N4CCOCC4)cc3)nc2)cc(OC)c1 on Recombinant human FGFR1 (Homo sapiens, UniProt P11362): 10
